Give measured abundance fitness for each item. Keep answers brief.
B1: POU domain, class 3, transcription factor 1, residues 247 to 324; numbered along this chain, Q03052 (parent)
chain: EDAPSSDDLEQFAKQFKQRRIKLGFTQADVGLALGTLYGNVFSQTTICRFEALQLSFKNMCKLKPLLNKWLEETDSSS

# Variants of: B1
# method: abundance fitness (aPCA) (normalised: wild type 0, dead -1); higher = more abundant; growth selection in yeast, the domain comes from the species named
# test-context: Homo sapiens
Numbers only.

Below, each entry is followed by its recorded abundance fitness result.
{"var": "L66P", "measured-parameter": "abundance fitness", "measured-result": -0.644}
{"var": "L34F", "measured-parameter": "abundance fitness", "measured-result": -0.408}
{"var": "C61I", "measured-parameter": "abundance fitness", "measured-result": -0.134}

Batch request: abundance fitness per item, same order as input.
1. E72Q
2. S43A
3. N59W
4. G35D
5. L37Q
6. V41C

[-0.143, -0.378, -0.223, -0.571, -0.054, -0.142]
